- particulars: fish
Hi! Could you tag entries with log10 biotransformation half-life (days) below 0.06 as 1 (yes), and those at or above as 0 (no)? Much appreciated.

Some entries whose results are on file:
q: Quick check: does Cc1c(Br)c(Br)c(Br)c(Br)c1Br have log10 biotransformation half-life (days) under 0.06?
a: 1 (yes)

q: Quick check: does c1ccc2c(c1)sc1ccccc12 have log10 biotransformation half-life (days) under 0.06?
a: 0 (no)

q: Quick check: does C[Si]1(C)O[Si](C)(C)O[Si](C)(C)O[Si](C)(C)O[Si](C)(C)O[Si](C)(C)O[Si](C)(C)O1 have log10 biotransformation half-life (days) under 0.06?
a: 0 (no)

q: Quick check: does Clc1c(Cl)c(Cl)c2c(c1Cl)Oc1c(Cl)c(Cl)c(Cl)c(Cl)c1O2 have log10 biotransformation half-life (days) under 0.06?
a: 0 (no)

q: Quick check: does Clc1cc(Cl)c(-c2c(Cl)c(Cl)cc(Cl)c2Cl)cc1Cl have log10 biotransformation half-life (days) under 0.06?
a: 0 (no)

---
q: Quick check: does CCCCCCCCc1ccccc1 have log10 biotransformation half-life (days) under 0.06?
a: 0 (no)

q: Quick check: does Cc1cc(C)c2c(c1)CC(C)(C)CC2 have log10 biotransformation half-life (days) under 0.06?
a: 0 (no)

q: Quick check: does CCCCCc1ccc(-c2ccccc2)cc1 have log10 biotransformation half-life (days) under 0.06?
a: 1 (yes)

* * *

Known log10 biodegradation half-life (days) of a selection of molecules
// no unit, no text: just the number

q: Fill blank: measured log10 biodegradation half-life (days) of the molecule CCCCCCCCCCCCCCCCCCCCCCC is ____.
a: 2.16

q: Fill blank: measured log10 biodegradation half-life (days) of the molecule CCCCCC(C)C is ____.
a: 0.477

---
q: Fill blank: measured log10 biodegradation half-life (days) of the molecule CCCCCCCCCCCCCCCCCCCCCCCCCCCCC is ____.
a: 2

q: Fill blank: measured log10 biodegradation half-life (days) of the molecule CCC(C)C(C)(C)C (stereo unspecified) is ____.
a: 0.845

q: Fill blank: measured log10 biodegradation half-life (days) of the molecule CCCCCCCCCCCC is ____.
a: 1

q: Fill blank: measured log10 biodegradation half-life (days) of the molecule CCc1cccc(C)c1 is ____.
a: 0.477

q: Fill blank: measured log10 biodegradation half-life (days) of the molecule c1ccc2c(c1)ccc1cc3c(ccc4ccccc43)cc12 is ____.
a: 2.62

* * *

- particulars: fish
measure: log10 BCF
// no unit, no text: just the number

q: Fill blank: measured log10 BCF of the molecule O=C(O)c1cccc([N+](=O)[O-])c1 is ____.
a: 0.85

---
q: Fill blank: measured log10 BCF of the molecule Nc1c(Cl)c(Cl)cc(Cl)c1Cl is ____.
a: 2.52

q: Fill blank: measured log10 BCF of the molecule Clc1cc2c(oc3c(Cl)c(Cl)c(Cl)c(Cl)c32)c(Cl)c1Cl is ____.
a: 3.45

q: Fill blank: measured log10 BCF of the molecule CCCCCCCCCCCC(=O)O is ____.
a: 2.4

q: Fill blank: measured log10 BCF of the molecule CC(C)c1cccc(C(C)C)c1 is ____.
a: 3.28

q: Fill blank: measured log10 BCF of the molecule COc1cc(Cl)c(Cl)cc1O is ____.
a: 2.03

* * *

- particulars: fish
Hi! Could you tag entries with log10 biotransformation half-life (days) below 0.9 as Condition met, and those at or above as Condition not met? Much appreciated.

Some entries whose results are on file:
q: Quick check: does ClC1C(Br)C(Br)C(Br)C(Br)C1Br (configuration not stated) have log10 biotransformation half-life (days) under 0.9?
a: Condition met

q: Quick check: does Clc1ccc(Oc2cc(Cl)c(Cl)cc2Cl)c(Cl)c1 have log10 biotransformation half-life (days) under 0.9?
a: Condition not met

q: Quick check: does COP(=S)(OC)Oc1c(Cl)cc(C)cc1Cl have log10 biotransformation half-life (days) under 0.9?
a: Condition met

q: Quick check: does O=[N+]([O-])c1cccc(O)c1 have log10 biotransformation half-life (days) under 0.9?
a: Condition met

q: Quick check: does ClC1=C(Cl)C2(Cl)C3C(Cl)C=CC3C1(Cl)C2(Cl)Cl (configuration not stated) have log10 biotransformation half-life (days) under 0.9?
a: Condition not met

--- query ---
q: Quick check: does CCNc1nc(Cl)nc(NC(C)C)n1 have log10 biotransformation half-life (days) under 0.9?
a: Condition met

* * *

Known melting point of a selection of compounds
All answers are understood in °C, so give the number only.

Examples from the recorded data:
q: Fill blank: measured melting point of the compound CCCCOCCOP(=O)(OCCOCCCC)OCCOCCCC is ____.
a: -70

q: Fill blank: measured melting point of the compound Cc1ncc(CSSCc2cnc(C)c(O)c2CO)c(CO)c1O is ____.
a: 219

q: Fill blank: measured melting point of the compound C[C@]12CC[C@H]3C(=CCc4cc(O)ccc43)[C@@H]1CC[C@@H]2O is ____.
a: 174

q: Fill blank: measured melting point of the compound O=C1C(Cl)=CC(=NCl)C=C1Cl is ____.
a: 66

q: Fill blank: measured melting point of the compound Clc1ccc2ccc(Cl)nc2c1 is ____.
a: 120

---
q: Fill blank: measured melting point of the compound CC[N+](C)(C)CCOC(=O)CCC(=O)OCC[N+](C)(C)CC.[Br-].[Br-] is ____.
a: 158

* * *

measure: ready biodegradability

Examples from the recorded data:
q: Fill blank: measured ready biodegradability of the molecule O=C(O)c1cccnc1C(=O)O is ____.
a: readily biodegradable

q: Fill blank: measured ready biodegradability of the molecule OCC1CCCO1 (stereo unspecified) is ____.
a: readily biodegradable

q: Fill blank: measured ready biodegradability of the molecule CCOC(=O)CC(=O)c1ccc(OC)cc1 is ____.
a: readily biodegradable

q: Fill blank: measured ready biodegradability of the molecule CCCCCCCCCl is ____.
a: readily biodegradable

q: Fill blank: measured ready biodegradability of the molecule C=CCCCCCCCCCCCCCCCCCCCCC(=O)O is ____.
a: readily biodegradable

Consider now this further molecule.
q: Fill blank: measured ready biodegradability of the molecule CN(C)C(=S)SSC(=S)N(C)C is ____.
a: readily biodegradable

* * *

# thresholds on melting point define classes: category 1: < 100 °C; category 2: ≥ 100 °C and < 200 °C; category 3: ≥ 200 °C

q: Hi, small favor: classify Nc1ccc2[nH]ccc2c1 by its melting point when you get a moment.
a: category 2

q: Hi, small favor: classify CC(C)(CCC(=O)O)C(=O)O by its melting point when you get a moment.
a: category 1

q: Hi, small favor: classify Cn1c(=O)c2c(ncn2CCO)n(C)c1=O by its melting point when you get a moment.
a: category 2

q: Hi, small favor: classify Oc1ccc2c(c1)[C@@]13CCCC[C@H]1[C@@H](C2)N(CCc1ccccc1)CC3 by its melting point when you get a moment.
a: category 3

q: Hi, small favor: classify O=P(O)(O)CCP(=O)(O)O by its melting point when you get a moment.
a: category 3

q: Hi, small favor: classify CC(C)(C)C(=O)OCC(=O)[C@@]1(O)CC[C@H]2[C@@H]3CCC4=CC(=O)C=C[C@]4(C)[C@H]3[C@@H](O)C[C@@]21C by its melting point when you get a moment.
a: category 3

q: Hi, small favor: classify c1ccc2cc(Nc3ccc4ccccc4c3)ccc2c1 by its melting point when you get a moment.
a: category 2

q: Hi, small favor: classify CC(CCC(=O)O)n1nnc2ccccc21 (configuration not stated) by its melting point when you get a moment.
a: category 1

---
q: Hi, small favor: classify C[C@@H]1C[C@H]2[C@@H]3C[C@H](F)C4=CC(=O)C=C[C@]4(C)[C@H]3[C@@H](O)C[C@]2(C)[C@H]1C(=O)CO by its melting point when you get a moment.
a: category 2

q: Hi, small favor: classify Nc1ccc(N)c2c1C(=O)c1c(N)ccc(N)c1C2=O by its melting point when you get a moment.
a: category 3

q: Hi, small favor: classify O=C(c1ccccc1)C1CCCCC1 by its melting point when you get a moment.
a: category 1

* * *

Known melting point of a selection of molecules
All answers are understood in °C, so give the number only.

Examples from the recorded data:
q: Fill blank: measured melting point of the molecule CC(CC(=O)O)C(=O)O (configuration not stated) is ____.
a: 118

q: Fill blank: measured melting point of the molecule COc1cc(C=CCO)ccc1O is ____.
a: 74

q: Fill blank: measured melting point of the molecule C#CC1(O)CCCC1 is ____.
a: 27

q: Fill blank: measured melting point of the molecule O=C(O)c1cccc2c(Cl)cccc12 is ____.
a: 245

q: Fill blank: measured melting point of the molecule CC12CCC(C1)C(C)(C)C2=O (configuration not stated) is ____.
a: 5.37

q: Fill blank: measured melting point of the molecule CC(C)OC(C)C is ____.
a: -86.8

Consider now this further molecule.
q: Fill blank: measured melting point of the molecule CCc1c(Br)c(Br)c(Br)c(Br)c1Br is ____.
a: 138
